- method-description: Phase 1b study in female adults with cystitis, plasma PK
- Type: in vivo, human
- settings: female, human, plasma, oral, 300 mg, plasma, Day 1, PO300; read-out: Tmax, Mean
- Procedure: According to the study design, a randomized (1:1:1), open-label, parallel designed Phase 1b study comparing 3 dosing regimens of Compound 1 (9-[(2,2-dimethyl-propyl amino)-methyl-minocycline) in the treatment of female adults with cystitis was conducted. […] Blood samples were collected and analyzed for Compound 1 concentration at the following times. […]
outcome-measure: Tmax

I am curious: what Tmax value has been reported for "CN(C)c1cc(CNCC(C)(C)C)c(O)c2c1C[C@H]1C[C@H]3[C@H](N(C)C)C(O)=C(C(N)=O)C(=O)[C@@]3(O)C(O)=C1C2=O" ?
2.99 h

====

- Tested on: MRSA
- method-description: In vitro MIC, 2010 surveillance isolates
- Format: cell-based
- settings: Europe; N=750
outcome-measure: MIC90 (µg/mL)
Your answer is read as µg/mL, so omit the unit and give the number.

The cases that follow already have their MIC90 on record.
I am curious: what MIC90 value has been reported for CN[C@H](CC(C)C)C(=O)N[C@H]1C(=O)N[C@@H](CC(N)=O)C(=O)N[C@H]2C(=O)N[C@H]3C(=O)N[C@H](C(=O)N[C@H](C(=O)O)c4cc(O)cc(O)c4-c4cc3ccc4O)[C@H](O)c3ccc(c(Cl)c3)Oc3cc2cc(c3O[C@@H]2O[C@H](CO)[C@@H](O)[C@H](O)[C@H]2O[C@H]2C[C@](C)(N)[C@H](O)[C@H](C)O2)Oc2ccc(cc2Cl)[C@H]1O [Vancomycin] ?
1

I am curious: what MIC90 value has been reported for C[C@H]1c2cccc(O)c2C(=O)C2=C(O)[C@]3(O)C(=O)C(C(N)=O)=C(O)[C@@H](N(C)C)[C@@H]3[C@@H](O)[C@@H]21 [Doxycycline] ?
4

I am curious: what MIC90 value has been reported for CN(C)c1cc(NC(=O)CNC(C)(C)C)c(O)c2c1C[C@H]1C[C@H]3[C@H](N(C)C)C(O)=C(C(N)=O)C(=O)[C@@]3(O)C(O)=C1C2=O [Tigecycline] ?
0.25

// next item, MIC90 requested
I am curious: what MIC90 value has been reported for CN(C)c1cc(CNCC(C)(C)C)c(O)c2c1C[C@H]1C[C@H]3[C@H](N(C)C)C(O)=C(C(N)=O)C(=O)[C@@]3(O)C(O)=C1C2=O [Compound 1] ?
0.25

====

- method-description: Phase 1b study in female adults with cystitis, plasma PK
- Format: in vivo, human
- settings: female, human, plasma, oral, 300 mg, plasma, Day 5, PO300; read-out: Cmax, Geo. Mean
outcome-measure: Cmax (ng/mL)
Your answer is read as ng/mL, so omit the unit and give the number.

I am curious: what Cmax value has been reported for "CN(C)c1cc(CNCC(C)(C)C)c(O)c2c1C[C@H]1C[C@H]3[C@H](N(C)C)C(O)=C(C(N)=O)C(=O)[C@@]3(O)C(O)=C1C2=O" ?
999

====

- method-description: Phase 1b study in female adults with cystitis, plasma PK
- Format: in vivo, human
- settings: female, human, plasma, oral, 300 mg, plasma, Day 5, IV_PO300; read-out: T½, Geo. Mean (converted)
outcome-measure: half-life

I am curious: what half-life value has been reported for "CN(C)c1cc(CNCC(C)(C)C)c(O)c2c1C[C@H]1C[C@H]3[C@H](N(C)C)C(O)=C(C(N)=O)C(=O)[C@@]3(O)C(O)=C1C2=O" ?
13.2 h

====

- method-description: Phase 1b study in female adults with cystitis, plasma PK
- Assay type: in vivo, human
- settings: female, human, plasma, oral, 450 mg, plasma, Day 1, PO450; read-out: Tmax, Median
outcome-measure: Tmax (h)
Your answer is read as h, so omit the unit and give the number.

I am curious: what Tmax value has been reported for CN(C)c1cc(CNCC(C)(C)C)c(O)c2c1C[C@H]1C[C@H]3[C@H](N(C)C)C(O)=C(C(N)=O)C(=O)[C@@]3(O)C(O)=C1C2=O [Compound 1] ?
3

====

- Test system: plasma proteins
- method-description: In vitro plasma protein binding (ultrafiltration), human plasma
- Type: in vitro ADME
- settings: male, human, plasma; Concentration 100 ng/mL
outcome-measure: fraction unbound at 100 ng/mL
Form field (numeric): enter value without unit.

I am curious: what fraction unbound at 100 ng/mL value has been reported for "CN(C)c1cc(CNCC(C)(C)C)c(O)c2c1C[C@H]1C[C@H]3[C@H](N(C)C)C(O)=C(C(N)=O)C(=O)[C@@]3(O)C(O)=C1C2=O" ?
0.656

====

- method-description: Phase 1b study in female adults with cystitis, urine PK
- Format: in vivo, human
- settings: female, human, urine and plasma, oral, 450 mg, Day 5, PO450; read-out: Renal CL, Mean (converted)
outcome-measure: clearance (mL/min)
Your answer is read as mL/min, so omit the unit and give the number.

I am curious: what clearance value has been reported for CN(C)c1cc(CNCC(C)(C)C)c(O)c2c1C[C@H]1C[C@H]3[C@H](N(C)C)C(O)=C(C(N)=O)C(=O)[C@@]3(O)C(O)=C1C2=O [Compound 1] ?
29.1

====

Entries and their MIC90
- System: K. pneumoniae ESBL−
- method-description: In vitro MIC, 2010 surveillance isolates
- Format: cell-based, Klebsiella pneumoniae
- settings: Asia/Pac; N=189
Your answer is read as µg/mL, so omit the unit and give the number.

The cases that follow already have their MIC90 on record.
I am curious: what MIC90 value has been reported for "CN(C)c1cc(CNCC(C)(C)C)c(O)c2c1C[C@H]1C[C@H]3[C@H](N(C)C)C(O)=C(C(N)=O)C(=O)[C@@]3(O)C(O)=C1C2=O" ?
4

I am curious: what MIC90 value has been reported for "CN(C)c1cc(NC(=O)CNC(C)(C)C)c(O)c2c1C[C@H]1C[C@H]3[C@H](N(C)C)C(O)=C(C(N)=O)C(=O)[C@@]3(O)C(O)=C1C2=O" ?
0.5

I am curious: what MIC90 value has been reported for "CO/N=C(\C(=O)N[C@@H]1C(=O)N2C(C(=O)O)=C(CSc3nc(=O)c(=O)[nH]n3C)CS[C@H]12)c1csc(N)n1" ?
0.12

// next item, MIC90 requested
I am curious: what MIC90 value has been reported for "NCC[C@H](O)C(=O)N[C@@H]1C[C@H](N)[C@@H](O[C@H]2O[C@H](CN)[C@@H](O)[C@H](O)[C@H]2O)[C@H](O)[C@H]1O[C@H]1O[C@H](CO)[C@@H](O)[C@H](N)[C@H]1O" ?
2

====

- method-description: Phase 1b study in female adults with cystitis, plasma PK
- Format: in vivo, human
- settings: female, human, plasma, po, 300 mg, Day 5; 300 mg po (n = 10); median; read-out: tmax
- Experimental: According to the study design, a randomized (1:1:1), open-label, parallel designed Phase 1b study comparing 3 dosing regimens of Compound 1 (9-[(2,2-dimethyl-propyl amino)-methyl-minocycline) in the treatment of female adults with cystitis was conducted. […] Blood samples were collected and analyzed for Compound 1 concentration at the following times. […]
outcome-measure: Tmax (h)
Your answer is read as h, so omit the unit and give the number.

I am curious: what Tmax value has been reported for CN(C)c1cc(CNCC(C)(C)C)c(O)c2c1C[C@H]1C[C@H]3[C@H](N(C)C)C(O)=C(C(N)=O)C(=O)[C@@]3(O)C(O)=C1C2=O [Compound 1] ?
3

====

- method-description: Phase 1b study in female adults with cystitis, plasma PK
- Type: in vivo, human
- settings: female, human, plasma, intravenous, 200 mg, plasma, Day 1, IV_PO300; read-out: AUC(0-inf), Mean
outcome-measure: AUC(0-inf) (ng·h/mL)
Your answer is read as ng·h/mL, so omit the unit and give the number.

I am curious: what AUC(0-inf) value has been reported for "CN(C)c1cc(CNCC(C)(C)C)c(O)c2c1C[C@H]1C[C@H]3[C@H](N(C)C)C(O)=C(C(N)=O)C(=O)[C@@]3(O)C(O)=C1C2=O" ?
19900

====

- method-description: Phase 1b study in female adults with cystitis, plasma PK
- Type: in vivo, human
- settings: female, human, plasma, oral, 300 mg, plasma, Day 5, PO300; read-out: Ctrough, Geo. Mean
outcome-measure: concentration at 5 day
# output: numeric value plus its unit

I am curious: what concentration at 5 day value has been reported for "CN(C)c1cc(CNCC(C)(C)C)c(O)c2c1C[C@H]1C[C@H]3[C@H](N(C)C)C(O)=C(C(N)=O)C(=O)[C@@]3(O)C(O)=C1C2=O" ?
293 ng/mL

====

- System: MRSA
- method-description: In vitro MIC, 2010 surveillance isolates
- Assay type: cell-based
- settings: Asia/Pac; Eucast breakpoints
outcome-measure: % R (resistance) (%)
Your answer is read as %, so omit the unit and give the number.

The cases that follow already have their % R (resistance) on record.
I am curious: what % R (resistance) value has been reported for CN(C)c1cc(NC(=O)CNC(C)(C)C)c(O)c2c1C[C@H]1C[C@H]3[C@H](N(C)C)C(O)=C(C(N)=O)C(=O)[C@@]3(O)C(O)=C1C2=O [Tigecycline] ?
0

I am curious: what % R (resistance) value has been reported for C[C@H]1COc2c(N3CCN(C)CC3)c(F)cc3c(=O)c(C(=O)O)cn1c23 [Levofloxacin] ?
70.6

I am curious: what % R (resistance) value has been reported for C[C@H]1c2cccc(O)c2C(=O)C2=C(O)[C@]3(O)C(=O)C(C(N)=O)=C(O)[C@@H](N(C)C)[C@@H]3[C@@H](O)[C@@H]21 [Doxycycline] ?
48.6

Further cases:
I am curious: what % R (resistance) value has been reported for CO/N=C(\C(=O)N[C@@H]1C(=O)N2C(C(=O)O)=C(CSc3nc(=O)c(=O)[nH]n3C)CS[C@H]12)c1csc(N)n1 [Ceftriaxone] ?
100

I am curious: what % R (resistance) value has been reported for CN[C@H](CC(C)C)C(=O)N[C@H]1C(=O)N[C@@H](CC(N)=O)C(=O)N[C@H]2C(=O)N[C@H]3C(=O)N[C@H](C(=O)N[C@H](C(=O)O)c4cc(O)cc(O)c4-c4cc3ccc4O)[C@H](O)c3ccc(c(Cl)c3)Oc3cc2cc(c3O[C@@H]2O[C@H](CO)[C@@H](O)[C@H](O)[C@H]2O[C@H]2C[C@](C)(N)[C@H](O)[C@H](C)O2)Oc2ccc(cc2Cl)[C@H]1O [Vancomycin] ?
0
